- Test system: Kentucky bluegrass
- method: Turf grass selectivity, greenhouse pot test
- Format: in vivo, Poa pratensis
- assayContext: 12 g ai/ha, 4 weeks

| compound | phytotoxicity (visual assessment 0-10) |
| --- | --- |
| Cc1cc(C)nc(NC(=O)NS(=O)(=O)c2ccccc2C(O)C(C)F)n1 (stereo not shown) [Example 1] | 0 |
| COc1nc(C)nc(NC(=O)NS(=O)(=O)c2cscc2C2(CF)OCCO2)n1 [Example 2] | 5 |
| COc1cc(OC)nc(NC(=O)NS(=O)(=O)c2ncccc2C(F)(F)F)n1 [Control chemical No. 2, Flazasulfuron, reference compound] | 10 |
| CCOC(=O)c1cnn(C)c1S(=O)(=O)NC(=O)Nc1nc(OC)cc(OC)n1 [Control chemical No. 1, Pyrazosulfuron ethyl, reference compound] | 0 |

The reported measurements were obtained from patent US20100035755A1.
